test system: Staphylococcus aureus 209P; test: minimal inhibitory concentration, agar dilution method (in vitro); type: cell-based
Where a name gives a salt, the structure may show the parent alone.
parameter: MIC (µg/mL)
Give the quantity in µg/mL, number only.

Consider the following illustrative entries.
>  <compound>
COc1nccc2ncc(C(=O)NC(C(=O)NC3C(=O)N4C3SC(C)(C)C4C(=O)O)c3ccccc3)c(O)c12 (stereo not drawn) [Example 44]

>  <parameter>
MIC

>  <readout-unit>
µg/mL

>  <observed-result>
0.78

$$$$
>  <compound>
CC1(C)S[C@@H]2[C@H](NC(=O)C(NC(=O)c3cnc4cc(C(F)(F)F)ccc4c3O)c3cccs3)C(=O)N2[C@H]1C(=O)O (stereo partly drawn) [Example 25]

>  <parameter>
MIC

>  <readout-unit>
µg/mL

>  <observed-result>
0.39

$$$$
>  <compound>
CC1(C)S[C@@H]2[C@H](NC(=O)C(NC(=O)c3cnc4cc(Cl)ccc4c3O)c3ccccc3)C(=O)N2[C@H]1C(=O)O (stereo partly drawn) [Example 15]

>  <parameter>
MIC

>  <readout-unit>
µg/mL

>  <observed-result>
0.2

$$$$
>  <compound>
Cc1ccnc2c(O)c(C(=O)NC(C(=O)NC3C(=O)N4C3SC(C)(C)C4C(=O)O)c3ccccc3)cnc12 (stereo not drawn) [Example 34]

>  <parameter>
MIC

>  <readout-unit>
µg/mL

>  <observed-result>
1.56

$$$$

Input line: Assign MIC to the following record: Cc1nc2cc3c(cc2c(O)c1C(=O)N[C@@H](C(=O)N[C@@H]1C(=O)N2[C@@H]1SC(C)(C)[C@@H]2C(=O)O)c1ccccc1)OCO3 [Example 7, potassium salt]
Output line: 0.2

Input line: Identify measured MIC corresponding to CCOC(=O)Oc1c(C(=O)NC(C(=O)N[C@@H]2C(=O)N3[C@@H]2SC(C)(C)[C@@H]3C(=O)O)c2ccccc2)cnc2ccc(NC(=O)OCc3ccccc3)cc12 (stereo partly drawn) [Example 24]
Output line: 0.39

Input line: Note down MIC recorded for CC(=O)Nc1ccc2ncc(C(=O)NC(C(=O)N[C@@H]3C(=O)N4[C@@H]3SC(C)(C)[C@@H]4C(=O)O)c3ccccc3)c(O)c2n1 (stereo partly drawn) [Example 30]
Output line: 0.78

Input line: // Input: CCSc1c(C(=O)NC(C(=O)N[C@@H]2C(=O)N3[C@@H]2SC(C)(C)[C@@H]3C(=O)O)c2ccccc2)cnc2cc3c(cc12)OCO3 (stereo partly drawn) [Example 8] . Output its MIC only.
Output line: 0.2

Input line: Identify measured MIC associated with CCOC(=O)Oc1c(C(=O)N[C@@H](C(=O)N[C@@H]2C(=O)N3[C@@H]2SC(C)(C)[C@@H]3C(=O)O)c2ccccc2)cnc2nc(C)ccc12 [Example 5]
Output line: 0.78

Input line: Using known records, supply MIC for COc1c(C(=O)NC(C(=O)N[C@@H]2C(=O)N3[C@@H]2SC(C)(C)[C@@H]3C(=O)O)c2ccccc2)cnc2ccccc12 (stereo partly drawn) [Example 14]
Output line: 0.2

Input line: Provide one value: measured MIC of CC1(C)S[C@@H]2[C@H](NC(=O)C(NC(=O)c3cnc4cc5c(cc4c3S)OCO5)c3ccccc3)C(=O)N2[C@H]1C(=O)O (stereo partly drawn) [Example 9]
Output line: 0.2

Input line: Query MIC for CN(C)c1ncc2c(O)c(C(=O)NC(C(=O)NC3C(=O)N4C3SC(C)(C)C4C(=O)O)c3ccccc3)cnc2n1 (stereo not drawn) [Example 46]
Output line: 1.56
